- Assay remarks: Ibrutinib and SMT-conjugate pharmacokinetics in human subjects (plasma of patients A and B)
- Condition details: human, 560 mg, Concentration, patient B, sample ID 7, T 4.1 h, 1xdd 560mg, group max
Observation type: concentration at 4.1 h (nM)

Data request: Given the entry Nc1ncnc2c1c(-c1ccc(Oc3ccccc3)cc1)nn2[C@@H]1CCCN(C(=O)CCSC[C@H](N)C(=O)NCC(=O)O)C1 [ICGS] , report its measured concentration at 4.1 h.
Data returned: 191

A = Nc1ncnc2c1c(-c1ccc(Oc3ccccc3)cc1)nn2[C@@H]1CCCN(C(=O)C(O)CO)C1 (stereo partly shown) [DHI, dihydrodiol-ibrutinib]
B = Nc1ncnc2c1c(-c1ccc(Oc3ccccc3)cc1)nn2[C@@H]1CCCN(C(=O)CCSC[C@H](N)C(=O)O)C1 [ICYS]
C = Nc1ncnc2c1c(-c1ccc(Oc3ccccc3)cc1)nn2[C@@H]1CCCN(C(=O)CCSC[C@H](NC(=O)CC[C@H](N)C(=O)O)C(=O)NCC(=O)O)C1 [IGSH]
Data request: Rank items: key concentration at 4.1 h, increasing. As an answer, provide the labels arranged in the order called for.
Data returned: C, B, A
